src = patent US20240425607A1

Below, each entry is listed with its recorded Fab Tm (DSF, ° C.).
test: Fab Tm by dynamic scanning fluorimetry (DSF); type: physicochemical; conditions: optimized antibodies
quantity_name: Fab Tm (DSF, ° C.)

molecule	quantity_name	result
ADI-71753: anti-IL18-BP antibody, sequences in FIG. 2S (antibody, V domains shown) VH: QLQLQESGPGLVKPSETLSLTCTVSGGSIFSSDYYWSWIRQPPGKGLEWIGVIAYSGSTYYNPSLKSRVTISVDTSKNQFSLKLSSATAADTAVYYCARGPFRQVFDYWGQGTLVTVSS VL: DIQMTQSPSSVSASVGDRVTITCRASQGISSWLAWYQQKPGKAPKLLIYAASSLQSGVPSRFSGSGSGTDFTLTISSLQPEDFATYYCQQGSSFPYTFGGGTKVEIK	Fab Tm (DSF, ° C.)	74.5 °C
ADI-71710: anti-IL18-BP antibody, sequences in FIG. 2I; 66650 lineage (antibody, V domains shown) VH: QVQLVQSGAEVKKPGASVKVSCKASGYTFGIYAMHWVRQAPGQRLEWMGWIHAGTGVTKYSQKFQGRVTITRDTSASTAYMELSSLRSEDTAVYYCARGLGEVGPTGTSWFDPWGQGTLVTVSS VL: DIQMTQSPSTLSASVGDRVTITCRASQSISSWLAWYQQKPGKAPKLLIYEASSLESGVPSRFSGSGSGTEFTLTISSLQPDDFATYYCQQYRYSPFTFGGGTKVEIK	Fab Tm (DSF, ° C.)	71.5 °C
ADI-71719: anti-IL18-BP antibody, sequences in FIG. 2B; 66670 lineage (antibody, V domains shown) VH: QVQLVQSGAEVKKPGSSVKVSCKASGGTFNSYVISWVRQAPGQGLEWMGGIIPGAGTANYAQKFQGRVTITADESTSTAYMELSSLRSEDTAVYYCARGRHSHETWGQGTLVTVSS VL: DIQMTQSPSSVSASVGDRVTITCRASQGISSWLAWYQQKPGKAPKLLIYAASSLQSGVPSRFSGSGSGTDFTLTISSLQPEDFATYYCQQVYSLPWTFGGGTKVEIK	Fab Tm (DSF, ° C.)	72.5 °C
ADI-71720: anti-IL18-BP antibody, sequences in FIG. 2C; 66670 lineage (antibody, V domains shown) VH: QVQLVQSGAEVKKPGSSVKVSCKASGGTFSEYVISWVRQAPGQGLEWMGGIIPGAGTANYAQKFQGRVTITADESTSTAYMELSSLRSEDTAVYYCARGRHSHETWGQGTLVTVSS VL: DIQMTQSPSSVSASVGDRVTITCRASQGISSWLAWYQQKPGKAPKLLIYAASSLQSGVPSRFSGSGSGTDFTLTIGSLQPEDFATYYCQQVYSLPWTFGGGTKVEIK	Fab Tm (DSF, ° C.)	72.5 °C
ADI-71744: anti-IL18-BP antibody, sequences in FIG. 2R (antibody, V domains shown) VH: QLQLQESGPGLVKPSETLSLTCTVSGGSISSSEYGWGWIRQPPGKGLEWIGSIVNSGSTYYNPSLKSRVTISVDTSKNQFSLKLSSVTAADTAVYYCARGPYRQVFDYWGQGTLVTVSS VL: DIQMTQSPSSVSASVGDRVTITCRASQGISSWLAWYQQKPGKAPKLLIYAASSLQSGVPSRFSGSGSGTDFTLTISSLQPEDFATYYCQQGWSFPYTFGGGTKVEIK	Fab Tm (DSF, ° C.)	74.5 °C
ADI-71739: anti-IL18-BP antibody, sequences in FIG. 2K; 66716 lineage (antibody, V domains shown) VH: QLQLQESGPGLVKPSETLSLTCTVSGGSISSPDYPWGWIRQPPGKGLEWIGSIYYQGATYYNPSLKSRVTISVDTSKNQFSLKLSSVTAADTAVYYCARGPYRQLFDYWGQGTLVTVSS VL: DIQMTQSPSSVSASVGDRVTITCRASQGISSWLAWYQQKPGKAPKLLIYAASSLQSGVPSRFSGSGSGTDFTLTISSLQPEDFATYYCQQGSVFPYTFGGGTKVEIK	Fab Tm (DSF, ° C.)	73.0 °C
ADI-71663: anti-IL18-BP antibody, sequences in FIG. 2F; 66692 lineage (antibody, V domains shown) VH: EVQLLESGGGLVQPGGSLRLSCAASGFTFGNTAMSWVRQAPGKGLEWVSAISANAGSTYYADSVKGRFTISRDNSKNTLYLQMNSLRAEDTAVYYCAKGPDRQVFDYWGQGTLVTVSS VL: DIQMTQSPSSVSASVGDRVTITCRASQGISSWLAWYQQKPGKAPKLLIYAASSLQSGVPSRFSGSGSGTDFTLTISSLQPEDFATYYCQHALFFPYTFGGGTKVEIK	Fab Tm (DSF, ° C.)	68.0 °C
ADI-71741: anti-IL18-BP antibody, sequences in FIG. 2P (antibody, V domains shown) VH: QLQLQESGPGLVKPSETLSLTCTVSGGSISSSDYPWGWIRQPPGKGLEWIGSIYYSGSTYYNPSLKSRVTISVDTSKNQFSLKLSSVTAADTAVYYCARGPYRQVFDYWGQGTLVTVSS VL: DIQMTQSPSSVSASVGDRVTITCRASQGISSWLAWYQQKPGKAPKLLIYAASSLQSGVPSRFSGSGSGTDFTLTISSLQPEDFATYYCQQGNSFPYTFGGGTKVEIK	Fab Tm (DSF, ° C.)	73.5 °C
ADI-71728: anti-IL18-BP antibody, sequences in FIG. 2O; 66670 lineage (antibody, V domains shown) VH: QVQLVQSGAEVKKPGSSVKVSCKASGGTFSEYPISWVRQAPGQGLEWMGGIIPYSGTAVYAQKFQGRVTITADESTSTAYMELSSLRSEDTAVYYCARGRHGHETWGQGTLVTVSS VL: DIQMTQSPSSVSASVGDRVTITCRASQGISSWLAWYQQKPGKAPKLLIYAASSLQSGVPSRFSGSGSGTDFTLTISSLQPEDFATYYCQQVYSIPWTFGGGTKVEIK	Fab Tm (DSF, ° C.)	73.0 °C
